As shown below, each of these molecules has a reported EC50 value.
- Test system: A/Puerto Rico/8/34 (H1N1)
- assay-explanation: CPE reduction assay, PR/8 (H1N1)
- Assay type: cell-based
- particulars: Influenza A virus, PR/8 (H1N1), CPE; read-out: EC50
The response must be a number in µM with no trailing unit.

Field: example entries. Status: answers known.
# input molecule: CC1(C)CC[C@@]2(C(=O)N[C@H]3OC(CO)[C@@H](O)C(O)C3O)C(C1)C1=CCC3[C@@]4(C)CC[C@H](O)C(C)(C)C4CC[C@@]3(C)[C@]1(C)C[C@H]2O (some centres unmarked) ; wanted: its EC50
6.22

Quick check: EC50 of NC12CC3CC(CC(C3)C1)C2 [Amantadine, amantadine, reference compound] ?
7.41

Given CC(=O)OCC1O[C@H](NC(=O)[C@]23CCC(C)(C)CC2C2=CCC4[C@@]5(C)CC[C@H](O)C(C)(C)C5CC[C@@]4(C)[C@]2(C)CC3)C(OC(C)=O)C(OC(C)=O)[C@@H]1OC(C)=O (some centres unmarked) , state its recorded EC50.
7.41

// moving on: another record for EC50
Endpoint output: EC50 of CC1(C)CC[C@]2(C(=O)O[C@H]3OC(CO)[C@@H](O)C(O)C3O)C(O)C[C@]3(C)C(=CC[C@@H]4[C@@]5(C)CC[C@H](O)C(C)(C)[C@@H]5CC[C@]43C)[C@@H]2C1 (some centres unmarked) . Value?
17.5

====

- assay-explanation: in vitro
- particulars: human
assay-endpoint: CC50 at 48 h

Solved cases below.
Which CC50 at 48 h value belongs to CC1(C)CC[C@]2(C(=O)O[C@H]3OC(CO)[C@@H](O)C(O)C3O)C(O)C[C@]3(C)C(=CC[C@@H]4[C@@]5(C)CC[C@H](O)C(C)(C)[C@@H]5CC[C@]43C)[C@@H]2C1 (stereo partly drawn) ?
> 100 µM

Return reported CC50 at 48 h; argument: CC(=O)OCC1O[C@H](O[C@H]2C(COC(C)=O)O[C@H](OC(=O)[C@]34CCC(C)(C)C[C@H]3C3=CC[C@@H]5[C@@]6(C)CC[C@H](O)C(C)(C)[C@@H]6CC[C@@]5(C)[C@]3(C)CC4O)C(OC(C)=O)C2OC(C)=O)C(OC(C)=O)C(OC(C)=O)[C@@H]1OC(C)=O (stereo partly drawn)
> 100 µM

Continue with the molecule presented below.
Recorded CC50 at 48 h of CCOC(=O)C1=C[C@@H](OC(CC)CC)[C@H](NC(C)=O)[C@@H](N)C1 [OSV-P, oseltamivir phosphate, reference compound] , please.
> 100 µM

====

- Tested on: influenza virus A/WSN/33(H1N1)
- assay-explanation: Cytopathic effect (CPE) inhibition assay, WSN virus in MDCK cells
- Type: cell-based
- particulars: Table 6; 50 μM, WSN MOI=1, 48 h; lower = better inhibition
This listing pairs compounds with measured Viral Infectivity (%).
Answer with a number only, understood to be in %.

Consider the compound shown here: CC(=O)OC1C(OC(C)=O)[C@H](OC(C)=O)CO[C@@H]1OC(=O)[C@]12CCC(C)(C)C[C@H]1C1=CC[C@@H]3[C@@]4(C)CC[C@H](O)C(C)(C)[C@@H]4CC[C@@]3(C)[C@]1(C)CC2O (some centres unmarked) [Compound Q5] What is its recorded Viral Infectivity (%)?
107.5

Below: the item to evaluate.
I would be grateful if you could share the reported Viral Infectivity (%) for CC1(C)CC[C@]2(C(=O)O[C@H]3OC(CO)[C@H](O[C@H]4OC(CO)[C@H](O)C(O)C4O)C(O)C3O)C(O)C[C@]3(C)C(=CC[C@@H]4[C@@]5(C)CC[C@H](O)C(C)(C)[C@@H]5CC[C@]43C)[C@@H]2C1 (some centres unmarked) [Compound Q14] .
154.4
